System: erythrocyte suspensions of human blood
Test: Hemolytic activity, hemoglobin release
Assay type: cell-based
Conditions: peptide 50 μM (table prints 50 µM); human blood erythrocytes 5% v/v; absorbance 540 nm; percentage compared to melittin; three replicates
Peptide text beside a SMILES is read from it.
Would you kindly list Hemolysis (%) at 50 µM for each of these molecules?

*Q* Provide Hemolysis (%) at 50 µM value for the following molecule: CC(C)C[C@@H]1NC(=O)[C@H](CCCCN)NC(=O)[C@H](CC(C)C)NC(=O)[C@H](Cc2c[nH]c3ccccc23)NC(=O)[C@H](CCCCN)NC(=O)[C@H](CC(C)C)NC(=O)[C@H](CCCCN)NC(=O)[C@H](CCCCN)NC(=O)[C@H](CCCCN)NC(=O)[C@H](CCC(N)=O)NC1=O [BPC072W, c(KKKLKWLKLQ)] (cyclo(KKKLKWLKLQ))
*A* 7%

*Q* Provide Hemolysis (%) at 50 µM value for the following molecule: CC(C)C[C@@H]1NC(=O)[C@H](CCCCN)NC(=O)[C@H](CC(C)C)NC(=O)[C@H](CC(C)C)NC(=O)[C@H](CCC(N)=O)NC(=O)[C@H](CCCCN)NC(=O)[C@H](CCCCN)NC(=O)[C@H](CCCCN)NC(=O)[C@H](Cc2c[nH]c3ccccc23)NC(=O)[C@H](CCCCN)NC1=O [BPC164W, c(LLKLKWKKKQ)] (cyclo(KKKQLLKLKW))
*A* 6%

*Q* Provide Hemolysis (%) at 50 µM value for the following molecule: CC(C)C[C@@H]1NC(=O)[C@H](CCC(N)=O)NC(=O)[C@H](CCCCN)NC(=O)[C@H](CCCCN)NC(=O)[C@H](CC(C)C)NC(=O)[C@H](Cc2c[nH]c3ccccc23)NC(=O)[C@H](CC(C)C)NC(=O)[C@H](CCCCN)NC(=O)[C@H](CCCCN)NC(=O)[C@H](CCCCN)NC1=O [BPC134W, c(LKKKLWLKKQ)] (cyclo(KKKLWLKKQL))
*A* 3%

*Q* Provide Hemolysis (%) at 50 µM value for the following molecule: CC(C)C[C@@H]1NC(=O)[C@H](CCCCN)NC(=O)[C@H](CC(C)C)NC(=O)[C@H](CCC(N)=O)NC(=O)[C@H](CC(C)C)NC(=O)[C@H](CCCCN)NC(=O)[C@H](CCCCN)NC(=O)[C@H](Cc2c[nH]c3ccccc23)NC(=O)[C@H](CCCCN)NC(=O)[C@H](CCCCN)NC1=O [BPC096W, c(LKLKKWKKLQ)] (cyclo(KKLQLKLKKW))
*A* 10%

*Q* Provide Hemolysis (%) at 50 µM value for the following molecule: CC(C)C[C@@H]1NC(=O)[C@H](CCCCN)NC(=O)[C@H](CCCCN)NC(=O)[C@H](Cc2c[nH]c3ccccc23)NC(=O)[C@H](CCCCN)NC(=O)[C@H](CC(C)C)NC(=O)[C@H](CC(C)C)NC(=O)[C@H](CCCCN)NC(=O)[C@H](CC(C)C)NC(=O)[C@H](CCC(N)=O)NC1=O [BPC192W, c(LKLLKWKKLQ)] (cyclo(KKLQLKLLKW))
*A* 13%

*Q* Provide Hemolysis (%) at 50 µM value for the following molecule: CC(C)C[C@@H]1NC(=O)[C@H](CCCCN)NC(=O)[C@H](CCCCN)NC(=O)[C@H](CCCCN)NC(=O)[C@H](CCCCN)NC(=O)[C@H](CCC(N)=O)NC(=O)[C@H](CCCCN)NC(=O)[C@H](CC(C)C)NC(=O)[C@H](CC(C)C)NC(=O)[C@H](Cc2c[nH]c3ccccc23)NC1=O [BPC100W, c(KKKKLWLLKQ)] (cyclo(KKKKLWLLKQ))
*A* 19%
